Where these numbers come from: the kinase profiling compilation of Christmann-Franck et al. (2016)

Entries and their measured kinase still bound, per cent of control follow.
# testSystem: MAPK3 (human)
# testProtocol: KINOMEscan competition binding
# reportedConditions: compound 10.0 µM
Numbers only here, please. The scale is %.

smilesNotation | kinase still bound, per cent of control [%]
COc1ccc(N(C(=O)Oc2cc(C(=O)Nc3cccc(C(F)(F)F)c3)ccc2C)c2ccnc(Nc3ccc(N4CCN(C)CC4)cc3)n2)c(OC)c1 | 100
CCN1CCN(Cc2ccc(NC(=O)c3ccc(C)c(/C=C/c4cnc5[nH]ccc5c4OC)c3)cc2C(F)(F)F)CC1 | 100

In: Reported kinase still bound, per cent of control for `CCc1nc(-c2cccc(C)c2)c(-c2ccnc(NC(=O)c3ccccc3)c2)s1` : what is it?
Out: 98

In: Repeat for the following compound: `COc1cc2ncnc(Nc3cccc(Cl)c3)c2cc1OC`
Out: 88

In: Queued: `Cc1cn(-c2cc(C(=O)Nc3ccc(C)c(NC(=O)c4ccno4)c3)cc(C(F)(F)F)c2)cn1`
Out: 100

In: Would you mind doing `CNC(=O)Nc1ccc(-c2nc(N3CC4CCC(C3)O4)c3cnn(C4CCC5(CC4)OCCO5)c3n2)cc1` as well?
Out: 97

In: Next entry: `N#Cc1cc(-c2ccnc(Nc3ccc(-n4cnc(-c5cccnc5)n4)cc3)n2)cc(N2CCOCC2)c1`
Out: 100

In: Likewise for `CCN(CCO)CCCOc1ccc2c(Nc3cc(CC(=O)Nc4cccc(F)c4)[nH]n3)ncnc2c1` ?
Out: 100

In: Here is the next compound: `N#C/C(=C1/Nc2ccccc2S1)c1ccnc(NCCc2cccnc2)n1`
Out: 100

---

# testSystem: CLK1 (human) (UniProt P49759)
# Sequence (P49759 whole entry, looked up): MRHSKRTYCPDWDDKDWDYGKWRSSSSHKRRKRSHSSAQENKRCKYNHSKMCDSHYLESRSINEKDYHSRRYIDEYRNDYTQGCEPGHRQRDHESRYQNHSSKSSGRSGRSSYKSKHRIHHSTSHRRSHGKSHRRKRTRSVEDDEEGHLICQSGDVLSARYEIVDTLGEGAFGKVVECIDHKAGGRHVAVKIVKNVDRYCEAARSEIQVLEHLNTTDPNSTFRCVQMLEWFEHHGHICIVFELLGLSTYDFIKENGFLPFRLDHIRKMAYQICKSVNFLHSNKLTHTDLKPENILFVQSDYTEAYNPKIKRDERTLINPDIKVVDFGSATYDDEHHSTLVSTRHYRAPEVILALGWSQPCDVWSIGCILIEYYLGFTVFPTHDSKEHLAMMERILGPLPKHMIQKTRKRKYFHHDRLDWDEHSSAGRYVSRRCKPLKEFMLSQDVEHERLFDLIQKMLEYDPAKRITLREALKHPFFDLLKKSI
# testProtocol: KINOMEscan competition binding
# reportedConditions: compound 10.0 µM
valueKind: kinase still bound, per cent of control (%)
Supply the numeric figure in %, leaving out any unit text.

Illustrative cases are given below, each with its answer.
smilesNotation | testSystem | valueKind | outputUnit | valueObserved
CCOc1cc(N2CCC(O)CC2)ccc1Nc1ncc2c(n1)N(C)c1ccccc1C(=O)N2C | CLK1 (human) (UniProt P49759) | kinase still bound, per cent of control | % | 100
CCN1CCN(Cc2ccc(NC(=O)c3ccc(C)c(/C=C/c4cnc5[nH]ccc5c4OC)c3)cc2C(F)(F)F)CC1 | CLK1 (human) (UniProt P49759) | kinase still bound, per cent of control | % | 14
CCc1nc(-c2cccc(C)c2)c(-c2ccnc(NC(=O)c3ccccc3)c2)s1 | CLK1 (human) (UniProt P49759) | kinase still bound, per cent of control | % | 92

Turning to the following compound.
In: Hi! What's the reported kinase still bound, per cent of control for `COc1ccc(N(C(=O)Oc2cc(C(=O)Nc3cccc(C(F)(F)F)c3)ccc2C)c2ccnc(Nc3ccc(N4CCN(C)CC4)cc3)n2)c(OC)c1` on CLK1 (human) (UniProt P49759)?
Out: 100

---

# testSystem: MYLK2 (human) (UniProt Q9H1R3)
# Sequence (Q9H1R3 whole entry, looked up): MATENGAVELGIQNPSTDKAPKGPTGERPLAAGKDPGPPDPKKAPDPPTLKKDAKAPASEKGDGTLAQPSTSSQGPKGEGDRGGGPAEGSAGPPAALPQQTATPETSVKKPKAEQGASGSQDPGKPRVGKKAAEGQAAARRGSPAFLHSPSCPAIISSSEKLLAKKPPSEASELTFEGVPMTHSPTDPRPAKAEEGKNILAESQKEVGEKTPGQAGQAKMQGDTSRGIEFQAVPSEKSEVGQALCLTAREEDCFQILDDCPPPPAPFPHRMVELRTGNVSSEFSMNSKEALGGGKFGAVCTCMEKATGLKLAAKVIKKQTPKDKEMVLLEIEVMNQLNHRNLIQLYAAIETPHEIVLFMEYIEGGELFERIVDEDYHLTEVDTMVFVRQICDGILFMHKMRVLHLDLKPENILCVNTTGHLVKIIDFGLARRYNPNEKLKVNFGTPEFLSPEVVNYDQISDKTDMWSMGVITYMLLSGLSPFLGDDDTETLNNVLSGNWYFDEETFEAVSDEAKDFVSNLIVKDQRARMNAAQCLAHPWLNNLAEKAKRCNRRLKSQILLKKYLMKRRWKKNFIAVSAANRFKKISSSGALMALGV
# testProtocol: KINOMEscan competition binding
# reportedConditions: compound 10.0 µM
valueKind: kinase still bound, per cent of control (%)
Report the figure in % without appending any unit label.

compound | testSystem | kinase still bound, per cent of control / %
CCN1CCN(Cc2ccc(NC(=O)c3ccc(C)c(/C=C/c4cnc5[nH]ccc5c4OC)c3)cc2C(F)(F)F)CC1 | MYLK2 (human) (UniProt Q9H1R3) | 0.55
COc1cc(N2CCC(C(N)=O)CC2)ccc1Nc1nc(N)c(Cl)c(Nc2ccccc2S(=O)(=O)C(C)C)n1 | MYLK2 (human) (UniProt Q9H1R3) | 100
CC(=O)c1c(C)c2cnc(Nc3ccc(N4CCNCC4)cn3)nc2n(C2CCCC2)c1=O | MYLK2 (human) (UniProt Q9H1R3) | 32
COc1cc2c(Nc3ccc(NC(=O)c4ccccc4)cc3)ncnc2cc1OCCCN1CCOCC1 | MYLK2 (human) (UniProt Q9H1R3) | 100
CCOc1cc(N2CCC(O)CC2)ccc1Nc1ncc2c(n1)N(C)c1ccccc1C(=O)N2C | MYLK2 (human) (UniProt Q9H1R3) | 100
COc1cc(C)c(Sc2cnc(NC(=O)c3ccc(CNC(C)C(C)C)cc3)s2)cc1C(=O)N1CCN(C(C)=O)CC1 (centres undefined) | MYLK2 (human) (UniProt Q9H1R3) | 100

In: Name the recorded kinase still bound, per cent of control for CC1=C(C(=O)Nc2cc3cn[nH]c3cc2F)C(c2ccc(C(F)(F)F)cc2)CC(=O)N1 (centres undefined) .
Out: 99

In: Let us now turn to `N#C/C(=C1/Nc2ccccc2S1)c1ccnc(NCCc2cccnc2)n1`
Out: 100

In: Also `CCN(CCO)CCCOc1ccc2c(Nc3cc(CC(=O)Nc4cccc(F)c4)[nH]n3)ncnc2c1` , if possible.
Out: 87

---

# testSystem: UniProt Q9UEE5
# Sequence (Q9UEE5 whole entry, looked up): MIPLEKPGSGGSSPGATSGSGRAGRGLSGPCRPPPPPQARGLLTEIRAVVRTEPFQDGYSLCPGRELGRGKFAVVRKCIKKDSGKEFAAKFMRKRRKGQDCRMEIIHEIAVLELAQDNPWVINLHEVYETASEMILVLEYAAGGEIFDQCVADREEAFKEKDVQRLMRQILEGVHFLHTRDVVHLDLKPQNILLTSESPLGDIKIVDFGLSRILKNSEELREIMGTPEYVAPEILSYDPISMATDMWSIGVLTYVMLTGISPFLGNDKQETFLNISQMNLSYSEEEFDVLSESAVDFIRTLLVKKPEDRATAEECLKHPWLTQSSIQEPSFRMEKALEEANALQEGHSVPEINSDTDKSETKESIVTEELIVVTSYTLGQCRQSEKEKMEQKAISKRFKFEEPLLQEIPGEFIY
# testProtocol: KINOMEscan competition binding
# reportedConditions: compound 10.0 µM
Entries annotated with measured kinase still bound, per cent of control
Please respond with the number in % and leave the unit unwritten.

Below: 10 compounds and their reported kinase still bound, per cent of control.
compound | kinase still bound, per cent of control / %
CCN1CCN(Cc2ccc(NC(=O)c3ccc(C)c(/C=C/c4cnc5[nH]ccc5c4OC)c3)cc2C(F)(F)F)CC1 | 1.3
COc1ccc(N(C(=O)Oc2cc(C(=O)Nc3cccc(C(F)(F)F)c3)ccc2C)c2ccnc(Nc3ccc(N4CCN(C)CC4)cc3)n2)c(OC)c1 | 100
COc1cc(N2CCC(C(N)=O)CC2)ccc1Nc1nc(N)c(Cl)c(Nc2ccccc2S(=O)(=O)C(C)C)n1 | 100
CNC(=O)Nc1ccc(-c2nc(N3CC4CCC(C3)O4)c3cnn(C4CCC5(CC4)OCCO5)c3n2)cc1 | 100
COc1cc2ncnc(Nc3cccc(Cl)c3)c2cc1OC | 19
CCCS(=O)(=O)Nc1ccc(F)c(C(=O)c2c[nH]c3ncc(Cl)cc23)c1F | 44
COc1cc2c(Nc3ccc(NC(=O)c4ccccc4)cc3)ncnc2cc1OCCCN1CCOCC1 | 100
CC1=C(C(=O)Nc2cc3cn[nH]c3cc2F)C(c2ccc(C(F)(F)F)cc2)CC(=O)N1 (configuration not stated) | 95
CCOc1cc(N2CCC(O)CC2)ccc1Nc1ncc2c(n1)N(C)c1ccccc1C(=O)N2C | 100
N#Cc1cc(-c2ccnc(Nc3ccc(-n4cnc(-c5cccnc5)n4)cc3)n2)cc(N2CCOCC2)c1 | 49

In: So what's the measured kinase still bound, per cent of control for this one? `N#C/C(=C1/Nc2ccccc2S1)c1ccnc(NCCc2cccnc2)n1`
Out: 100

In: Please do the same for `C=CC(=O)Nc1ccc(C(=O)c2sc(Nc3ccc(N4CCN(C)CC4)cc3OC)nc2N)cc1` as well.
Out: 100

In: Let us now turn to `CCc1nc(-c2cccc(C)c2)c(-c2ccnc(NC(=O)c3ccccc3)c2)s1`
Out: 81

In: Let us now turn to `Cc1cn(-c2cc(C(=O)Nc3ccc(C)c(NC(=O)c4ccno4)c3)cc(C(F)(F)F)c2)cn1`
Out: 100

In: Next compound: `CCN(CCO)CCCOc1ccc2c(Nc3cc(CC(=O)Nc4cccc(F)c4)[nH]n3)ncnc2c1`
Out: 46

In: Next compound up: `O=c1[nH]c2ccccc2n1C1CCN(Cc2ccc(-c3nc4cc5[nH]cnc5cc4nc3-c3ccccc3)cc2)CC1`
Out: 100

In: What about this compound? COc1cc(C)c(Sc2cnc(NC(=O)c3ccc(CNC(C)C(C)C)cc3)s2)cc1C(=O)N1CCN(C(C)=O)CC1 (configuration not stated)
Out: 100

---

# testSystem: PAK4 (human) (UniProt O96013)
# Sequence (O96013 whole entry, looked up): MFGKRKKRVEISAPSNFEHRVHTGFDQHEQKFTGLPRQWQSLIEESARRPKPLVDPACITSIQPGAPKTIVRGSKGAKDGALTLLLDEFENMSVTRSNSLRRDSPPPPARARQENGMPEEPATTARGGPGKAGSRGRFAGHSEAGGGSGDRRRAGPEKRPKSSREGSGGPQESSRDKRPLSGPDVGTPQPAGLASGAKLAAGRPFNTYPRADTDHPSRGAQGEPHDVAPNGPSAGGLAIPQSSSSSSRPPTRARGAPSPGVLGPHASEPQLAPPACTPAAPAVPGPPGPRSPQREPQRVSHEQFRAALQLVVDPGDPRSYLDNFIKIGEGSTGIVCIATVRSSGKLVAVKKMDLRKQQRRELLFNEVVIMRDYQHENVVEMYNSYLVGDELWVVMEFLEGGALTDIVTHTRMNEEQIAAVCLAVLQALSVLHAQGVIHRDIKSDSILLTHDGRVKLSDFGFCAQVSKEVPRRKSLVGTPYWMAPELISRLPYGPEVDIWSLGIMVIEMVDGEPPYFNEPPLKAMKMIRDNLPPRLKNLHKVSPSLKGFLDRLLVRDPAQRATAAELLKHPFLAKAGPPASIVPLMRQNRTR
# testProtocol: KINOMEscan competition binding
# reportedConditions: compound 10.0 µM
valueKind: kinase still bound, per cent of control (%)
Field format: number, assumed %, no unit text.

compound | outputUnit | kinase still bound, per cent of control
CC1=C(C(=O)Nc2cc3cn[nH]c3cc2F)C(c2ccc(C(F)(F)F)cc2)CC(=O)N1 (configuration not stated) | % | 85
CNC(=O)Nc1ccc(-c2nc(N3CC4CCC(C3)O4)c3cnn(C4CCC5(CC4)OCCO5)c3n2)cc1 | % | 100
COc1ccc(N(C(=O)Oc2cc(C(=O)Nc3cccc(C(F)(F)F)c3)ccc2C)c2ccnc(Nc3ccc(N4CCN(C)CC4)cc3)n2)c(OC)c1 | % | 100
CCN1CCN(Cc2ccc(NC(=O)c3ccc(C)c(/C=C/c4cnc5[nH]ccc5c4OC)c3)cc2C(F)(F)F)CC1 | % | 86
COc1cc(C)c(Sc2cnc(NC(=O)c3ccc(CNC(C)C(C)C)cc3)s2)cc1C(=O)N1CCN(C(C)=O)CC1 (configuration not stated) | % | 100
CCOc1cc(N2CCC(O)CC2)ccc1Nc1ncc2c(n1)N(C)c1ccccc1C(=O)N2C | % | 100
N#C/C(=C1/Nc2ccccc2S1)c1ccnc(NCCc2cccnc2)n1 | % | 78
CCN(CCO)CCCOc1ccc2c(Nc3cc(CC(=O)Nc4cccc(F)c4)[nH]n3)ncnc2c1 | % | 100
C=CC(=O)Nc1ccc(C(=O)c2sc(Nc3ccc(N4CCN(C)CC4)cc3OC)nc2N)cc1 | % | 95
COc1cc(N2CCC(C(N)=O)CC2)ccc1Nc1nc(N)c(Cl)c(Nc2ccccc2S(=O)(=O)C(C)C)n1 | % | 100

In: Given `O=c1[nH]c2ccccc2n1C1CCN(Cc2ccc(-c3nc4cc5[nH]cnc5cc4nc3-c3ccccc3)cc2)CC1` , state its recorded kinase still bound, per cent of control.
Out: 74

In: Follow-up entry: `COc1cc2ncnc(Nc3cccc(Cl)c3)c2cc1OC`
Out: 84

In: Repeat with `COc1cc2c(Nc3ccc(NC(=O)c4ccccc4)cc3)ncnc2cc1OCCCN1CCOCC1`
Out: 100

In: Same question for `Cc1cn(-c2cc(C(=O)Nc3ccc(C)c(NC(=O)c4ccno4)c3)cc(C(F)(F)F)c2)cn1` please.
Out: 100

In: Next: `CCCS(=O)(=O)Nc1ccc(F)c(C(=O)c2c[nH]c3ncc(Cl)cc23)c1F`
Out: 57

In: Record: `CCc1nc(-c2cccc(C)c2)c(-c2ccnc(NC(=O)c3ccccc3)c2)s1`
Out: 86

In: Would you kindly repeat that for `N#Cc1cc(-c2ccnc(Nc3ccc(-n4cnc(-c5cccnc5)n4)cc3)n2)cc(N2CCOCC2)c1` ?
Out: 31
